- Tested on: rgRSV224 virus
- assay.summary: Antiviral activity: rgRSV224 (GFP) replication in HeLa cells
- Type: cell-based, respiratory syncytial virus (RSV)
- recorded.conditions: human respiratory syncytial virus, HeLa, 72 h, read-out: RSV HELA EC50 (μM), rgRSV224 virus (MOI=1), HeLa cells, GFP expression three days post-virus exposure
Field 'label' (enum: YES / NO). Set to YES when EC50 is strictly under 0.06 µM; else NO.

EC50 under 0.06 µM? Item: C[C@@H]1c2ccccc2CCN1C(=O)c1cc(C2CC2)n2nc(-c3ncc(N4CC[C@H](C(N)=O)C4)nc3F)cc2n1 [Compound 88]
YES

EC50 under 0.06 µM? Item: C[C@@H]1c2ccccc2CCN1C(=O)c1cc(C2CC2)n2nc(-c3ccc(N4CC[C@H](C(N)=O)[C@@H]4C)cc3F)cc2n1 (single isomer, unassigned) [Compound 83]
YES

EC50 under 0.06 µM? Item: C[C@@H]1c2ccccc2CCN1C(=O)c1cc(C2CC2)n2nc(-c3ccc(N4CC[C@@H](C(N)=O)[C@@H]4C)cc3F)cc2n1 (single isomer, unassigned) [Compound 82]
YES

EC50 under 0.06 µM? Item: CC(=O)N[C@@H]1CCN(c2ccc(-c3cc4nc(C(=O)N5CCc6ccccc6[C@H]5C)cc(C5CC5)n4n3)c(F)c2)C1 [Compound 7]
YES

EC50 under 0.06 µM? Item: C[C@@H]1c2ccccc2CCN1C(=O)c1cc(C2CC2)n2nc(-c3ccc(N4CC[C@H](OC(N)=O)C4)cc3F)cc2n1 [Compound 78]
YES

EC50 under 0.06 µM? Item: C[C@@H]1c2ccccc2CCN1C(=O)c1cc(C2CC2)n2nc(-c3ccc(N4CC[C@@H](S(C)(=O)=O)C4)cc3F)cc2n1 [Compound 17]
YES

EC50 under 0.06 µM? Item: C[C@@H]1c2ccccc2CCN1C(=O)c1cc(C2CC2)n2nc(-c3ccc(N4CC[C@H](C(=O)N(C)C)C4)cc3F)cc2n1 [Compound 38]
YES

EC50 under 0.06 µM? Item: C[C@@H]1c2ccccc2CCN1C(=O)c1cc(C2CC2)n2nc(-c3ccc(N4CCCC(CC(N)=O)C4)cc3F)cc2n1 (stereo partly drawn) [Compound 71]
NO

EC50 under 0.06 µM? Item: CNS(=O)(=O)C1CCN(c2ccc(-c3cc4nc(C(=O)N5CCc6ccccc6[C@H]5C)cc(C5CC5)n4n3)c(F)c2)C1 (stereo partly drawn) [Compound 21]
YES

EC50 under 0.06 µM? Item: C[C@@H]1c2ccccc2CCN1C(=O)c1cc(C2CC2)n2nc(-c3ccc(N4CC[C@H](S(C)(=O)=O)C4)cc3F)cc2n1 [Compound 18]
YES

EC50 under 0.06 µM? Item: C[C@@H]1c2ccccc2CCN1C(=O)c1cc(C2CC2)n2nc(-c3cnc(N4CC[C@H](C(=O)NS(C)(=O)=O)C4)cc3F)cc2n1 [Compound 54]
NO

EC50 under 0.06 µM? Item: C[C@@H]1c2ccccc2CCN1C(=O)c1cc(C2CC2)n2nc(-c3ccc(N4CCC5(C4)CS(=O)(=O)C5)cc3F)cc2n1 [Compound 6]
NO

* * *

experimental.readout: CC50 (µM)
Give your result in µM as a bare value.

The value of CC50 recorded for C[C@@H]1c2ccccc2CCN1C(=O)c1cc(C2CC2)n2nc(-c3ccc(N4C[C@@H](C(N)=O)C[C@@H]4C)cc3F)cc2n1 (relative stereo) when tested on HeLa cells reads 25.5

* * *

I'd be grateful if you could share measured melting point for these entries.
Give your result in °C as a bare value.

melting point in this record for C[C@@H]1c2ccccc2CCN1C(=O)c1cc(C2CC2)n2nc(-c3ccc(N4CC[C@H](C(N)=O)[C@H]4C)cc3F)cc2n1 (single isomer, unassigned) : 271.19

melting point in this record for C[C@@H]1c2ccccc2CCN1C(=O)c1cc(C2CC2)n2nc(-c3ccc(N4C[C@H](C(N)=O)C[C@@H]4C)cc3F)cc2n1 (single isomer, unassigned) : 292.7

melting point in this record for CNC(=O)CC1CN(c2ccc(-c3cc4nc(C(=O)N5CCc6ccccc6[C@H]5C)cc(C5CC5)n4n3)c(F)c2)C1 : 143.13

melting point in this record for C[C@@H]1c2ccccc2CCN1C(=O)c1cc(C2CC2)n2nc(-c3ccc(N4CC[C@H](C(N)=O)C4)cc3F)cc2n1 : 237.7

melting point in this record for COc1ccc(-c2cc(C(=O)N3CCc4ccccc4[C@H]3C)nc3cc(-c4ccc(N5CC[C@H](C(N)=O)C5)cc4F)nn23)cc1 : 216.34

* * *

I'd be grateful if you could share measured CC50 at 3 days for these entries.
- assay.summary: in vitro
- recorded.conditions: human, TOX HELA CC50 (μM)
Give your result in µM as a bare value.

CC50 at 3 days in this record for C[C@@H]1c2ccccc2CCN1C(=O)c1cc(C2CC2)n2nc(-c3ccc(N4CCC(C(N)=O)CC4)cc3F)cc2n1 : 26.6

CC50 at 3 days in this record for C[C@@H]1c2ccccc2CCN1C(=O)c1cc(C2CC2)n2nc(-c3ccc(N4C[C@H](O)[C@H](O)[C@H]4CO)cc3F)cc2n1 : 47.6

CC50 at 3 days in this record for C[C@@H]1c2ccccc2CCN1C(=O)c1cc(C2CC2)n2nc(-c3ccc(N4CC[C@H](C(N)=O)[C@@H]4C)cc3F)cc2n1 (single isomer, unassigned) : 42.4

CC50 at 3 days in this record for C[C@@H]1c2ccccc2CCN1C(=O)c1cc(C2CC2)n2nc(-c3ccc(N4CC[C@@H](O)C4)cc3F)cc2n1 : 80.5

CC50 at 3 days in this record for CNC(=O)[C@H]1CCN(c2ccc(-c3cc4nc(C(=O)N5CCc6ccccc6[C@H]5C)cc(C5CC5)n4n3)c(F)c2)C1 : 62

CC50 at 3 days in this record for C[C@@H]1c2cc(F)ccc2CCN1C(=O)c1cc(C2CC2)n2nc(-c3ccc(N4CC[C@H](C(N)=O)C4)cc3F)cc2n1 (single isomer, unassigned) : 41.5

CC50 at 3 days in this record for C[C@@H]1c2ccsc2CCN1C(=O)c1cc(C2CC2)n2nc(-c3ccc(N4CC[C@](C)(CC(N)=O)C4)cc3F)cc2n1 (single isomer, unassigned) : 29.6

CC50 at 3 days in this record for C[C@@H]1c2ccccc2CCN1C(=O)c1cc(C2CC2)n2nc(-c3ncc(N4CC[C@H](C(N)=O)C4)nc3F)cc2n1 : 47.6

CC50 at 3 days in this record for CC(=O)N[C@@H]1CCN(c2ccc(-c3cc4nc(C(=O)N5CCc6ccccc6[C@H]5C)cc(C5CC5)n4n3)c(F)c2)C1 : 71.5

CC50 at 3 days in this record for C[C@@H]1c2ccccc2CCN1C(=O)c1cc(C2CC2)n2nc(-c3ccc(N4CC[C@](C)(CC(N)=O)C4)cc3F)cc2n1 (single isomer, unassigned) : 30.3

* * *

- System: rgRSV224 virus
- assay.summary: Antiviral activity: rgRSV224 (GFP) replication in HeLa cells
- Format: cell-based, respiratory syncytial virus (RSV)
- recorded.conditions: human respiratory syncytial virus, HeLa, 72 h, read-out: RSV HELA EC50 (μM), rgRSV224 virus (MOI=1), HeLa cells, GFP expression three days post-virus exposure
experimental.readout: EC50 (µM)
Give your result in µM as a bare value.

EC50 in this record for C[C@@H]1c2ccccc2CCN1C(=O)c1cc(C2CC2)n2nc(-c3c(F)cc(N4CC[C@H](C(N)=O)C4)cc3OCCO)cc2n1 : 0.089

EC50 in this record for C[C@@H]1c2ccccc2CCN1C(=O)c1cc(C2CC2)n2nc(-c3ccc(N4CCC5(COC5)C4)cc3F)cc2n1 : 0.118

EC50 in this record for C[C@@H]1c2ccccc2CCN1C(=O)c1cc(C2CC2)n2nc(-c3ccc(N4CC[C@@H](S(C)(=N)=O)C4)cc3F)cc2n1 (stereo partly drawn) : 0.476

EC50 in this record for C[C@@H]1c2ccccc2CCN1C(=O)c1cc(-c2ccc(Cl)cc2)n2nc(-c3ccc(N4CC[C@H](C(N)=O)C4)cc3F)cc2n1 : 0.047

EC50 in this record for CNC(=O)O[C@@H]1CCN(c2ccc(-c3cc4nc(C(=O)N5CCc6ccccc6[C@H]5C)cc(C5CC5)n4n3)c(F)c2)C1 : 0.1

EC50 in this record for C[C@@H]1c2ccccc2CCN1C(=O)c1cc(-c2ccc(C#N)cc2)n2nc(-c3ccc(N4CC[C@H](C(N)=O)C4)cc3F)cc2n1 : 0.043

EC50 in this record for C[C@@H]1c2ccsc2CCN1C(=O)c1cc(C2CC2)n2nc(-c3ccc(N4CC[C@H](C(C)(C)C(N)=O)C4)cc3F)cc2n1 (single isomer, unassigned) : 0.045

EC50 in this record for C[C@@H]1c2ccccc2CCN1C(=O)c1cc(C2CC2)n2nc(-c3ccc(N4C[C@H](C(N)=O)C[C@H]4C)cc3F)cc2n1 (single isomer, unassigned) : 0.06

EC50 in this record for C[C@@H]1c2ccccc2CCN1C(=O)c1cc(C2CC2)n2nc(-c3ccc(N4CCC(O)(CO)C4)cc3F)cc2n1 (single isomer, unassigned) : 0.019

EC50 in this record for C[C@@H]1c2ccccc2CCN1C(=O)c1cc(C2CC2)n2nc(-c3ccc(N4CC[C@@H](C(C)(C)C(N)=O)C4)cc3F)cc2n1 (single isomer, unassigned) : 0.072

EC50 in this record for C[C@@H]1c2ccccc2CCN1C(=O)c1cc(C2CC2)n2nc(-c3ccc(N4CCCC(O)C4)cc3F)cc2n1 (stereo partly drawn) : 0.076

EC50 in this record for C[C@@H]1c2ccccc2CCN1C(=O)c1cc(C2CC2)n2nc(-c3ccc(N4CC[C@@H](c5nnn[nH]5)C4)cc3F)cc2n1 : 0.056

EC50 in this record for C[C@@H]1c2ccccc2CCN1C(=O)c1cc(C2CC2)n2nc(-c3ccc(N4CC[C@H](NP(C)(C)=O)C4)cc3F)cc2n1 : 0.036

EC50 in this record for C[C@@H]1c2ccccc2CCN1C(=O)c1cc(C2CC2)n2nc(-c3ccc(N4CC(C(N)=O)C4)cc3F)cc2n1 : 0.036

EC50 in this record for C[C@@H]1c2ccccc2CCN1C(=O)c1cc(C2CC2)n2nc(-c3ccc(N4CC[C@H](C(N)=O)C4)cc3F)cc2n1 : 0.012

EC50 in this record for C[C@@H]1c2ccccc2CCN1C(=O)c1cc(C2CC2)n2nc(-c3ccc(N4CC[C@H](O)C4)cc3F)cc2n1 : 0.039

EC50 in this record for C[C@@H]1c2ccccc2CCN1C(=O)c1cc(-c2cncnc2)n2nc(-c3ccc(N4CC[C@H](C(N)=O)C4)cc3F)cc2n1 : 0.029

EC50 in this record for C[C@@H]1c2ccccc2CCN1C(=O)c1cc(C2CC2)n2nc(-c3ccc(N4C[C@H](C)[C@@H](O)C4)cc3F)cc2n1 (stereo in doubt) : 0.092

EC50 in this record for C[C@@H]1c2ccccc2CCN1C(=O)c1cc(C2CC2)n2nc(-c3ccc(N4CCC(S(=O)(=O)N(C)C)C4)cc3F)cc2n1 (stereo partly drawn) : 0.145

EC50 in this record for C[C@@H]1c2ccsc2CCN1C(=O)c1cc(C2CC2)n2nc(-c3ccc(N4CC[C@H](C(N)=O)C4)cc3F)cc2n1 (single isomer, unassigned) : 0.007

EC50 in this record for C[C@@H]1c2ccccc2CCN1C(=O)c1cc(-c2ccc(F)cc2)n2nc(-c3ccc(N4CC[C@H](C(N)=O)C4)cc3F)cc2n1 : 0.029

EC50 in this record for C[C@@H]1c2ccccc2CCN1C(=O)c1cc(C2CC2)n2nc(-c3ccc(N4CC[C@H](C(=O)NS(C)(=O)=O)C4)cc3F)cc2n1 : 0.061

EC50 in this record for C[C@@H]1c2ccsc2CCN1C(=O)c1cc(C2CC2)n2nc(-c3ccc(N4CC[C@@](C)(CC(N)=O)C4)cc3F)cc2n1 (single isomer, unassigned) : 0.02

EC50 in this record for C[C@@H]1c2ccccc2CCN1C(=O)c1cc(C2CC2)n2nc(-c3ccc(N4CC[C@H](C(N)=S)C4)cc3F)cc2n1 : 0.058
